Numbers sourced from a melting point compilation (Tetko et al.; mined from patent text by program, amines drawn as free bases though some values may be those of a salt).

Recorded melting point, one value per entry.

>  <Compound>
CCCNC(=O)COC1c2ccccc2C(=O)N1c1ccc2ccc(OC)nc2n1 (stereo not given)

>  <Uom>
°C

>  <melting point>
174

$$$$
>  <Compound>
O=C(O)CC1=CSCSC1

>  <Uom>
°C

>  <melting point>
97

$$$$

====

Recorded melting point, one value per entry.
Endpoint label: melting point

>  <Input smiles>
N#CC1=Nc2nc(C3CCCC3)[nH]c2C2=N[C@H](Cc3ccccc3)CN12

>  <Result>
140 to 142 °C

$$$$
>  <Input smiles>
CCc1nn(Cc2cccnn2)c(C(N)=O)c1N

>  <Result>
171 to 174 °C

$$$$
>  <Input smiles>
Cc1c(CCc2ccc3nc(N)sc3c2)ncn1C(c1ccccc1)(c1ccccc1)c1ccccc1

>  <Result>
200 to 203 °C

$$$$
>  <Input smiles>
CC(C)(C)CNc1nc(NC(C)(C)C)cc(N2CCNCC2)n1

>  <Result>
146 to 148 °C

$$$$
>  <Input smiles>
O=C1Nc2cc(F)ccc2Oc2ccccc21

>  <Result>
228 to 229 °C

$$$$
>  <Input smiles>
Cc1nc(C(=O)Cl)c(CCc2ccccc2)o1

>  <Result>
38 to 39 °C

$$$$
>  <Input smiles>
CN1C(=O)C=C(c2c[nH]c3ncccc23)C1=O

>  <Result>
> 250 °C

$$$$
>  <Input smiles>
COc1ccc(C(=O)c2ccc(OC)c([N+](=O)[O-])c2)cc1[N+](=O)[O-]

>  <Result>
189 to 190 °C

$$$$
>  <Input smiles>
CNC(=O)CCCC1CCN(Cc2cnc3cc(NC(=O)c4ccc(-c5ccc(F)cc5)cc4)c(C)cc3c2)CC1

>  <Result>
223 °C

$$$$
>  <Input smiles>
Cc1ccc(NC(=O)NN2CCN(CCc3c[nH]c4ccccc34)CC2)cc1

>  <Result>
201 to 203 °C

$$$$

====

Recorded melting point, one value per entry.

>  <Compound>
O=S(=O)(Nc1ccc(-c2nn(S(=O)(=O)c3ccccc3)c3c2Cc2ccccc2-3)cc1)c1ccccc1

>  <melting point>
251 to 252 °C

$$$$
>  <Compound>
FC(F)(F)Oc1ccc(C=Cc2nc(CNc3ccc(CCCCn4ccnn4)cc3)co2)cc1

>  <melting point>
103 to 105 °C

$$$$
>  <Compound>
Cc1ccc(-c2nc(C)c(-c3ccnc(Nc4ccc(N5CCOCC5)cc4)n3)s2)cn1

>  <melting point>
244 to 245 °C

$$$$
>  <Compound>
COC(=O)c1scc(-c2ccccc2)c1-c1ccc(SC)c(F)c1

>  <melting point>
141 °C

$$$$
>  <Compound>
CCOC(=O)Cc1ccc(-c2nc(COc3ccc(COc4nn(-c5ccccc5)cc4/C=C/c4cn(CC)cn4)cc3OC)c(C)o2)cc1

>  <melting point>
140 to 141 °C

$$$$
>  <Compound>
CCC1(C)CC(S(=O)(=O)Cc2c(F)cccc2F)=NO1 (centres undefined)

>  <melting point>
64 to 65 °C

$$$$
>  <Compound>
O=C(O)c1ccc(Br)cc1COc1ccccc1

>  <melting point>
160 to 163 °C

$$$$
>  <Compound>
c1ccc(CN2CCC3(CC2)SCCS3)cc1

>  <melting point>
51 to 53 °C

$$$$
>  <Compound>
CN1CCC(N(C)C(=O)CNS(=O)(=O)c2ccc(Nc3nccc(Nc4ccc(F)cc4)n3)cc2)CC1

>  <melting point>
233 to 234 °C

$$$$
